// provenance: patent US7795261B2

# Assay System: UniProt P29371
# Sequence (P29371 1-465): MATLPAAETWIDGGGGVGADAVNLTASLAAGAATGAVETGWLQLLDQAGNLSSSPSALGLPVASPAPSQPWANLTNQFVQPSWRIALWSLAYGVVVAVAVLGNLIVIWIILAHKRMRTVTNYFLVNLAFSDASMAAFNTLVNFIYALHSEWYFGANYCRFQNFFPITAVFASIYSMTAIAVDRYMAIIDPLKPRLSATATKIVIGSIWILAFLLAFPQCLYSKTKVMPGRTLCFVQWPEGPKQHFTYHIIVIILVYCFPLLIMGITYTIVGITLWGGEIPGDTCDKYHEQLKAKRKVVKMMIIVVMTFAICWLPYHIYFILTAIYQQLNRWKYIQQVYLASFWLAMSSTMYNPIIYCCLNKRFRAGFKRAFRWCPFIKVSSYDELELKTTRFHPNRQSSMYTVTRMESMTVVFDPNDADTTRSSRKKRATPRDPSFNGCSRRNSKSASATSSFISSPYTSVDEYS
# Experiment: Signal transduction (ST), intracellular Ca++ (FLIPR), NK3
# Assay type: cell-based
# Cond: read-out: pIC50 NK3 (converted)

Compound	Value Unit	IC50
O=C(c1cc(C(F)(F)F)cc(C(F)(F)F)c1)N1CC[C@H](N2CCN(C3CCN(C(=C[N+](=O)[O-])N4CCCC4)C3)CC2)C[C@H]1Cc1ccccc1 (stereo partly shown)	nM	6310
CC(C)NC(=O)N1CCC(N2CCN([C@H]3CCN(C(=O)c4cc(C(F)(F)F)cc(C(F)(F)F)c4)[C@H](Cc4ccccc4)C3)CC2)C1 (stereo partly shown)	nM	5010
O=C(c1sccc1COCc1ccccc1)N1CCC(N2CCN([C@H]3CCN(C(=O)c4cc(C(F)(F)F)cc(C(F)(F)F)c4)[C@H](Cc4ccccc4)C3)CC2)C1 (stereo partly shown)	nM	794
O=C(c1ccsc1)N1CCC(N2CCN(C3CCN(C(=O)c4cc(C(F)(F)F)cc(C(F)(F)F)c4)C(Cc4ccccc4)C3)CC2)C1 (single isomer, unassigned) [Compound 40]	nM	126
O=C(c1ccsc1)N1CCC(N2CCN(C3CCN(C(=O)c4cc(C(F)(F)F)cc(C(F)(F)F)c4)C(Cc4ccccc4)C3)CC2)C1 (single isomer, unassigned) [Compound 39]	nM	398
O=C(Cn1cnc2ccccc21)N1CCC(N2CCN([C@H]3CCN(C(=O)c4cc(C(F)(F)F)cc(C(F)(F)F)c4)[C@H](Cc4ccccc4)C3)CC2)C1 (stereo partly shown)	nM	2510
COCCC(=O)N1CC[C@@H](N2CCN([C@H]3CCN(C(=O)c4cc(C(F)(F)F)cc(C(F)(F)F)c4)[C@H](Cc4ccccc4)C3)CC2)C1	nM	631
O=C(c1snnc1-c1ccccc1)N1CCC(N2CCN([C@H]3CCN(C(=O)c4cc(C(F)(F)F)cc(C(F)(F)F)c4)[C@H](Cc4ccccc4)C3)CC2)C1 (stereo partly shown)	nM	3160
O=C(c1csnn1)N1CCC(N2CCN([C@H]3CCN(C(=O)c4cc(C(F)(F)F)cc(C(F)(F)F)c4)[C@H](Cc4ccccc4)C3)CC2)C1 (stereo partly shown)	nM	631
O=C(CN1CCOC1=O)N1CCC(N2CCN([C@H]3CCN(C(=O)c4cc(C(F)(F)F)cc(C(F)(F)F)c4)[C@H](Cc4ccccc4)C3)CC2)C1 (stereo partly shown)	nM	5010
CC1(C)OCC(CNC(=C[N+](=O)[O-])N2CCC(N3CCN([C@H]4CCN(C(=O)c5cc(C(F)(F)F)cc(C(F)(F)F)c5)[C@H](Cc5ccccc5)C4)CC3)C2)O1 (stereo partly shown)	nM	3980
Cc1cc(C(=O)N2CCC(N3CCN([C@H]4CCN(C(=O)c5cc(C(F)(F)F)cc(C(F)(F)F)c5)[C@H](Cc5ccccc5)C4)CC3)C2)no1 (stereo partly shown) [Compound 47]	nM	3980
CC(C)(C)OC(=O)N1CCCC(C(=O)N2CCC(N3CCN([C@H]4CCN(C(=O)c5cc(C(F)(F)F)cc(C(F)(F)F)c5)[C@H](Cc5ccccc5)C4)CC3)C2)C1 (stereo partly shown)	nM	2510
